experiment.description: chemical genetic growth profiling, strain panel (AID 1159580);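 further: tested at 20 µM; growth read once vehicle control cultures reached saturation at 30 °C; 1 = growth at the plate median or of vehicle wells; lower values mean less growth of the strain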
assay.conditions: S. cerevisiae deletion strains, growth OD, locus YCR088W, strain abp1, hits give low values
The campaign covered roughly 5,500 compounds. About 2,000 (36%) were called active. About 18% were inconclusive and are not listed. Some of the results follow.

| compound | normalized growth |
| --- | --- |
| CC1(C)S[C@@H]2[C@H](NC(=O)[C@H](C(=O)O)c3cccs3)C(=O)N2[C@H]1C(=O)O | 0.996 |
| COc1cccc(OC)c1C(=O)N[C@@H]1C(=O)N2[C@@H]1SC(C)(C)[C@@H]2C(=O)O | 0.996 |
| Cc1onc(-c2ccccc2)c1C(=O)NC1C(=O)N2[C@@H]1SC(C)(C)[C@@H]2C(=O)O (some centres undefined) | 1.02 |
| CC[C@H]1OC(=O)[C@H](C)[C@@H](O[C@H]2C[C@@](C)(OC)[C@@H](O)[C@H](C)O2)[C@H](C)[C@@H](O[C@@H]2O[C@H](C)C[C@H](N(C)C)[C@H]2O)[C@](C)(O)C[C@@H](C)[C@@H]2N[C@@H](COCCOC)O[C@H]([C@H]2C)[C@]1(C)O | 0.999 |
| O=c1oc2c(O)c(O)cc3c(=O)oc4c(O)c(O)cc1c4c23 | 0.895 |
| COc1cc2c(cc1OC)[C@@H]1C(=O)c3ccc4c(c3O[C@@H]1CO2)CC(C(C)C)O4 (some centres undefined) | 0.99 |
| CN(C)C(=N)N=C(N)N | 1.01 |
| NCCc1cc(O)c(O)cc1O | 0.999 |
| CCN(CC)CCNC(=O)c1cc(Cl)c(N)cc1OC | 0.991 |

* * *

The compounds listed here are annotated with their normalized growth.
experiment.description: chemical genetic growth profiling, strain panel (AID 1159580);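 further: tested at 20 µM; growth read once vehicle control cultures reached saturation at 30 °C; 1 = growth at the plate median or of vehicle wells; lower values mean less growth of the strain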
assay.conditions: S. cerevisiae deletion strains, growth OD, locus YMR205C, strain PFK2, hits give low values
About 2,000 (36%) of roughly 5,500 compounds were called active. About 18% were inconclusive and are not listed. The list shows a part of the results.

| compound.string | normalized growth |
| --- | --- |
| COc1cccc(OC)c1C(=O)N[C@@H]1C(=O)N2[C@@H]1SC(C)(C)[C@@H]2C(=O)O | 0.991 |
| CN(C)CCc1c[nH]c2ccc(C[C@H]3COC(=O)N3)cc12 | 0.998 |
| O=c1c(O)c(-c2ccc(O)c(O)c2)oc2cc(O)ccc12 | 0.994 |
| OCCN1CCN(CCCN2c3ccccc3Sc3ccc(C(F)(F)F)cc32)CC1 | 0.992 |
| CO[C@@]1(NC(=O)Cc2cccs2)C(=O)N2C(C(=O)O)=C(COC(N)=O)CS[C@@H]21 | 0.988 |

* * *

experiment.description: chemical genetic growth profiling, strain panel (AID 1159580);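 further: tested at 20 µM; growth read once vehicle control cultures reached saturation at 30 °C; 1 = growth at the plate median or of vehicle wells; lower values mean less growth of the strain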
assay.conditions: S. cerevisiae deletion strains, growth OD, locus YOR231W, strain MKK1, hits give low values
Among all 5,500 compounds or so, about 2,000 (36%) were called active. Roughly 18% stayed inconclusive and do not appear here. This is one part of the list.
normalized growth strictly under 1 means Satisfied; at 1 or over means Not satisfied.

| compound.string | class.assignment |
| --- | --- |
| CNS(=O)(=O)Cc1ccc2[nH]cc(CCN(C)C)c2c1 | Not satisfied |
| CN(C)CCc1c[nH]c2ccc(CS(=O)(=O)N3CCCC3)cc12 | Satisfied |
| CCOc1ccc(C(=O)c2cc(O)c(OC)c(OC)c2O)cc1 | Satisfied |
| O=c1c(-c2ccccc2)c(O)c2cccc3c4c(n1c23)CCCC4 | Satisfied |

Sourced from PubChem BioAssay AID1159580
